Recorded IC50, one value per entry.
Biological target: UniProtKB Q9H9B1
Sequence (Q9H9B1 whole entry): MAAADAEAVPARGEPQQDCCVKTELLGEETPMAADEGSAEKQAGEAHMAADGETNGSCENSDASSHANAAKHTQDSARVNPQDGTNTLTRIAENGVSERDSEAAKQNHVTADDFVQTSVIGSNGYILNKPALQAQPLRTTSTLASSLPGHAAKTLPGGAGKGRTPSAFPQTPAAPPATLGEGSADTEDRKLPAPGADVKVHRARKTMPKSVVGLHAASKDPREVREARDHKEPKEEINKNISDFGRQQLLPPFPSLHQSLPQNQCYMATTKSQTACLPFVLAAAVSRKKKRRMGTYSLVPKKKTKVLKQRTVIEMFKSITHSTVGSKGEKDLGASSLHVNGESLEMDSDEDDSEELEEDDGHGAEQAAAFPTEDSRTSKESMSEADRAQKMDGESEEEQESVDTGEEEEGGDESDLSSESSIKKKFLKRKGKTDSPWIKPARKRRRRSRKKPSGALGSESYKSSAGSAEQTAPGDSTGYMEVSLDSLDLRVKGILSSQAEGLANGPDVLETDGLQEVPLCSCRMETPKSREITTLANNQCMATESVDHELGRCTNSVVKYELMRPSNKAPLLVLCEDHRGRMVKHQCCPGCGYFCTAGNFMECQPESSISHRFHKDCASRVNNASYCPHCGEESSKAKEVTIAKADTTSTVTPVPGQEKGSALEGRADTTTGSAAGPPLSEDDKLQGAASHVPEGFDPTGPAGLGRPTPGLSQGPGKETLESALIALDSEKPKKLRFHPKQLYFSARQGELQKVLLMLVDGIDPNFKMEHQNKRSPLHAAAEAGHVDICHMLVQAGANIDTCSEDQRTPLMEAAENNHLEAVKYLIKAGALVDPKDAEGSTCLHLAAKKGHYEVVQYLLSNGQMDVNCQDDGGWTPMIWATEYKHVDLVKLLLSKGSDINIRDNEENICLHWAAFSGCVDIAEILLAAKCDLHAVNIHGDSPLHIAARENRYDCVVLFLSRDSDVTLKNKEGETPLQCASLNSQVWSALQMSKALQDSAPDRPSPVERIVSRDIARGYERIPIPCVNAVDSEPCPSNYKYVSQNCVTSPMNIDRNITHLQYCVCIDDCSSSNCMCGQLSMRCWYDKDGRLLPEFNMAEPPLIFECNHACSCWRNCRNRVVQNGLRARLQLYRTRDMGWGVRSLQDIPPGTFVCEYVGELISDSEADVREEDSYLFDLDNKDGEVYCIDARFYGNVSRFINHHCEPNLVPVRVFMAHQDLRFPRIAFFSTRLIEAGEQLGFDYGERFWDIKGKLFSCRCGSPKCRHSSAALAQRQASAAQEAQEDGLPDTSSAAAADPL
Test: EHMT1 PEP (EHMT1 peptide enzyme assay)
Format: biochemical
Conditions: peptide substrate enzyme assay

smiles entry	IC50
CNC1=Nc2cc(-c3[nH]c4cnccc4c3C)c(OC)cc2C12CCC2	< 0.1 µM
CNc1cc(C)nc(Nc2ccc(OC)c(-n3cnc(CN4CCC4)n3)c2)n1	1 to 10 µM
CNc1cc(C)nc(Nc2ccc(OC)c(-n3ccc(CN(C)C(C)=O)n3)c2)n1	> 10 µM
CNc1cc(C)nc(Nc2ccc(OC)c(-n3ccc(CN4CCCC4)n3)c2)n1	1 to 10 µM
CNc1ccnc(Nc2ccc(OC)c(-c3cc4[nH]ccc4cn3)c2)n1	< 0.1 µM
CNc1cc(C)nc(Nc2ccc(OC)c(-c3[nH]c4cnccc4c3CNC(C)=O)c2)n1	< 0.1 µM
CNc1nc2cc(-c3[nH]c4cnccc4c3C)c(OC)cc2n1C	0.1 to 1 µM
CNc1cc(C)nc(Nc2ccc(OC)c(-c3nc4c([nH]3)CN(C)CC4)c2)n1	1 to 10 µM
COc1cc(NC2CCNCC2)ncc1-c1cc2[nH]ccc2cn1	1 to 10 µM
CNCc1cnn(-c2c(OC)ccc(Nc3nc(C)cc(NC)n3)c2OC)c1	< 0.1 µM
CCN1CCc2nn(-c3cc(Nc4nc(C)cc(NC)n4)ccc3OC)cc2C1	0.1 to 1 µM
CNc1cc(C)nc(Nc2ccc(OC)c(-n3cc(C4CC4)cn3)c2)n1	0.1 to 1 µM
CNc1nc(Nc2ccc(OC)c(-n3cc4c(n3)CCNC4)c2)nc(C)c1F	0.1 to 1 µM
CNc1cc(C)nc(Nc2cc(-n3cc4c(n3)CCN(C)C4)c(OC)cn2)n1	1 to 10 µM
CNc1cc(C)nc(Nc2ccc(OC)c(-n3nccc3CN)c2)n1	1 to 10 µM
CNCc1cnn(-c2cc3c(cc2OC)C2(CCC2)C(NC)=N3)c1	< 0.1 µM
CNc1cc(C)nc(Nc2ccc(OC)c(-c3cc4ncncc4[nH]3)c2)n1	1 to 10 µM
CNCc1cnn(-c2c(F)ccc(Nc3nc(C)cc(NC)n3)c2Cl)c1	< 0.1 µM
CNc1cc(C)nc(Nc2ccc(OC)c(-c3cc4[nH]ccc4c(CN)n3)c2)n1	< 0.1 µM
CNc1nc(Nc2ccc(OC)c(-n3ncc4c3CCNC4)c2)nc(C)c1F	1 to 10 µM
CNc1cc(C)nc(Nc2ccc(OC)c(-n3cc4cc(Br)ccc4n3)c2)n1	0.1 to 1 µM
CNc1cc(C)nc(Nc2ccc(OC)c(-n3cc4ccncc4n3)c2)n1	1 to 10 µM
CNc1cc(C)nc(Nc2ccc(Cl)c(C(=O)Nc3nccs3)c2)n1	0.1 to 1 µM
CNc1cc(C)nc(Nc2ccc(Cl)c(C(=O)Nc3ncco3)c2)n1	0.1 to 1 µM
CCn1cc(NC(=O)c2cc(Nc3nc(C)cc(NC)n3)ccc2OC)cn1	> 10 µM
CNc1cc(C)nc(Nc2ccc(C)c(C(=O)Nc3cscn3)c2)n1	1 to 10 µM
CNc1cc(C)nc(Nc2ccc(OC)c(-n3cc4cc(C5CC5)ccc4n3)c2)n1	> 10 µM

----------
Target: recombinant purified human EHMT2 913-1193 (Homo sapiens)
Construct: Recombinant purified human EHMT2 913-1193 (55 μM) synthesized by Viva was used for all experiments; purchased Viva
Sequence (Q96KQ7 913-1193): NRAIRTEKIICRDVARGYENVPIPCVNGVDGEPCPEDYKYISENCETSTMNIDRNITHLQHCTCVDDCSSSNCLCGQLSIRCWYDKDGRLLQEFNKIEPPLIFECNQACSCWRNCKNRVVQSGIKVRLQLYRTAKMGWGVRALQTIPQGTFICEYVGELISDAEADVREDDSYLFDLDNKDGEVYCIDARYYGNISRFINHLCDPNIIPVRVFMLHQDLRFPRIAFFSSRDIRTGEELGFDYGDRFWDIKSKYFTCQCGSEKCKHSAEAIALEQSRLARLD
Assay: EHMT2 enzyme assay on histone peptide substrate (3H-SAM Flashplate)
Type: biochemical
Conditions: read-out: EHMT2 PEP (IC50 μM)

molecule	IC50
CNc1cc(C)nc(Nc2cnc(C)c(-c3cc4ccncc4[nH]3)c2)n1 [Compound 311]	> 10 µM
CNc1cc(C)nc(Nc2ccc(OC)c(-c3cc4c(cn3)CC(=O)N4)c2)n1 [Compound 219]	1 to 10 µM
CNc1cc(C)nc(Nc2ccc(OC)c(-n3cc4c(n3)CN(C)CC4)c2)n1 [Compound 3]	1 to 10 µM
CNC(=O)c1cn(-c2cc(Nc3nc(C)cc(NC)n3)ccc2OC)nc1C [Compound 103]	> 10 µM
CNc1cc(C)nc(Nc2ccc(Cl)c(-c3cc4c(cn3)CC(=O)N4)c2)n1 [Compound 260]	1 to 10 µM
CNc1cc(C)nc(Nc2ccc(OC)c(-c3cc4[nH]ccc4nc3C)c2)n1 [Compound 228]	< 0.1 µM

Just for reference, patent US20220235065A1 is where these values come from.
